Residues, ends and D or L forms follow the SMILES beside them.
Assay system E. coli; read-out recorded as MIC Escherichia coli (ATCC 25922).
reported-metric: MIC Escherichia coli (ATCC 25922) (µg/mL)

compound	quantitative-readout
N=C(N)NCCC[C@@H]1NC(=O)[C@H](CCCNC(=N)N)NC(=O)[C@H](CCCNC(=N)N)NC(=O)[C@H](Cc2c[nH]c3ccccc23)NC(=O)[C@H](Cc2c[nH]c3ccccc23)NC(=O)[C@H](Cc2c[nH]c3ccccc23)NC(=O)[C@H](Cc2c[nH]c3ccccc23)NC(=O)[C@H](CCCNC(=N)N)NC(=O)[C@H](CCCNC(=N)N)NC1=O [[R5W4] (IFX-301)]	16
N=C(N)NCCC[C@@H]1NC(=O)[C@H](CCCNC(=N)N)NC(=O)[C@H](Cc2c[nH]c3ccccc23)NC(=O)[C@H](Cc2c[nH]c3ccccc23)NC(=O)[C@H](Cc2c[nH]c3ccccc23)NC(=O)[C@H](CCCNC(=N)N)NC1=O [[R3W3] (IFX-302)] (cyclo(WWWRRR))	32
N=C(N)NCCC[C@@H]1NC(=O)[C@H](CCCNC(=N)N)NC(=O)[C@H](CCCNC(=N)N)NC(=O)[C@H](CCCNC(=N)N)NC(=O)[C@H](Cc2c[nH]c3ccccc23)NC(=O)[C@H](Cc2c[nH]c3ccccc23)NC(=O)[C@H](Cc2c[nH]c3ccccc23)NC(=O)[C@H](Cc2c[nH]c3ccccc23)NC(=O)[C@H](CCCNC(=N)N)NC(=O)[C@H](CCCNC(=N)N)NC1=O [[R6W4] (IFX-318)] (cyclo(RRRRRRWWWW))	32
N=C(N)NCCC[C@@H]1NC(=O)[C@H](CCCNC(=N)N)NC(=O)[C@H](CCCNC(=N)N)NC(=O)[C@H](Cc2c[nH]c3ccccc23)NC(=O)[C@H](Cc2c[nH]c3ccccc23)NC(=O)[C@H](Cc2c[nH]c3ccccc23)NC(=O)[C@H](Cc2c[nH]c3ccccc23)NC(=O)[C@H](Cc2c[nH]c3ccccc23)NC(=O)[C@H](CCCNC(=N)N)NC(=O)[C@H](CCCNC(=N)N)NC1=O [[R5W5] (IFX-314)] (cyclo(RRRRRWWWWW))	16
N=C(N)NCCC[C@@H]1NC(=O)[C@H](CCCNC(=N)N)NC(=O)[C@H](CCCNC(=N)N)NC(=O)[C@H](Cc2c[nH]c3ccccc23)NC(=O)[C@H](Cc2c[nH]c3ccccc23)NC(=O)[C@H](Cc2c[nH]c3ccccc23)NC(=O)[C@H](Cc2c[nH]c3ccccc23)NC(=O)[C@H](CCCNC(=N)N)NC1=O [[R4W4] (IFX-326)] (cyclo(RRRRWWWW))	16
N=C(N)NCCC[C@@H]1NC(=O)[C@H](CCCNC(=N)N)NC(=O)[C@H](CCCNC(=N)N)NC(=O)[C@H](CCCNC(=N)N)NC(=O)[C@H](Cc2c[nH]c3ccccc23)NC(=O)[C@H](Cc2c[nH]c3ccccc23)NC(=O)[C@H](Cc2c[nH]c3ccccc23)NC(=O)[C@H](Cc2c[nH]c3ccccc23)NC(=O)[C@H](CCCNC(=N)N)NC(=O)[C@H](CCCNC(=N)N)NC(=O)[C@H](CCCNC(=N)N)NC1=O [[R7W4] (IFX-322)] (cyclo(RRRRRRRWWWW))	32

* * *

Tested on: human red blood cells
Set-up: unit not given beside the values
Non-standard residues stand in square brackets, D forms with d. Residues, ends and D or L forms follow the SMILES beside them. Dip = N[C@H](C(=O)O)C(c1ccccc1)c1ccccc1; 2Nal = N[C@@H](Cc1ccc2ccccc2c1)C(=O)O
// boundary case: HC50 equal to 200 maps to class 0; strictly smaller maps to class 1

compound	classification
N=C(N)NCCC[C@H](NC(=O)[C@H](CCCNC(=N)N)NC(=O)[C@@H](N)CCCNC(=N)N)C(=O)N[C@@H](CCCNC(=N)N)C(=O)N[C@H](C(=O)N[C@H](C(=O)N[C@@H](Cc1c[nH]c2ccccc12)C(=O)O)C(c1ccccc1)c1ccccc1)C(c1ccccc1)c1ccccc1 [IFX-028-1, NH2-R-R-R-R-Dip-Dip-Trp-OH] (H-RRRR[Dip][Dip]W-OH)	class 0
N=C(N)NCCC[C@@H]1NC(=O)[C@@H](CCCNC(=N)N)NC(=O)[C@H](CCCNC(=N)N)NC(=O)[C@@H](Cc2c[nH]c3ccccc23)NC(=O)[C@H](Cc2c[nH]c3ccccc23)NC(=O)[C@@H](Cc2c[nH]c3ccccc23)NC(=O)[C@H](Cc2c[nH]c3ccccc23)NC(=O)[C@@H](CCCNC(=N)N)NC1=O [IFX-033, c[Arg-arg-Arg-arg-Trp-trp-Trp-trp]] (cyclo(R[dR]R[dR]W[dW]W[dW]))	class 1
N=C(N)NCCC[C@@H]1NC(=O)[C@H](CCCNC(=N)N)NC(=O)[C@H](Cc2ccc3ccccc3c2)NC(=O)[C@H](Cc2ccc3ccccc3c2)NC(=O)[C@H](Cc2c[nH]c3ccccc23)NC(=O)[C@H](CCCNC(=N)N)NC1=O [IFX-023, c[Arg-Arg-Arg-Trp-NaI-NaI]] (cyclo(RRRW[2Nal][2Nal]))	class 1
N=C(N)NCCC[C@@H]1NC(=O)[C@H](CCCNC(=N)N)NC(=O)[C@H](CCCNC(=N)N)NC(=O)[C@H](Cc2ccc3ccccc3c2)NC(=O)[C@H](Cc2ccc3ccccc3c2)NC(=O)[C@H](CCCNC(=N)N)NC1=O [IFX-011, c[Arg-Arg-Arg-Arg-NaI-NaI]] (cyclo([2Nal][2Nal]RRRR))	class 0
N=C(N)NCCC[C@@H]1NC(=O)[C@H](CCCNC(=N)N)NC(=O)[C@H](CCCNC(=N)N)NC(=O)[C@H](Cc2ccc3ccccc3c2)NC(=O)[C@H](Cc2ccc3ccccc3c2)NC(=O)[C@H](Cc2ccc3ccccc3c2)NC(=O)[C@H](CCCNC(=N)N)NC(=O)[C@H](CCCNC(=N)N)NC1=O [IFX-013, c[Arg-Arg-Arg-Arg-Arg-NaI-NaI-NaI]] (cyclo([2Nal][2Nal][2Nal]RRRRR))	class 0
N=C(N)NCCC[C@@H]1NC(=O)[C@H](CCCNC(=N)N)NC(=O)[C@H](CCCNC(=N)N)NC(=O)[C@H](C(c2ccccc2)c2ccccc2)NC(=O)[C@H](Cc2c[nH]c3ccccc23)NC(=O)[C@H](C(c2ccccc2)c2ccccc2)NC(=O)[C@H](CCCNC(=N)N)NC1=O [IFX-027, c[Arg-Arg-Arg-Arg-Dip-Trp-Dip]] (cyclo(RRRR[Dip]W[Dip]))	class 0

* * *

Tested on: Streptococcus pneumoniae ATCC 51938
experimental-parameters: S. pneumoniae ATCC 51938
Non-standard residues stand in square brackets, D forms with d. Residues, ends and D or L forms follow the SMILES beside them. Dip = N[C@H](C(=O)O)C(c1ccccc1)c1ccccc1
reported-metric: Broad-spectrum activity S. pneumoniae (ATCC 51938)

compound	quantitative-readout
N=C(N)NCCC[C@@H]1NC(=O)[C@H](CCCNC(=N)N)NC(=O)[C@H](C(c2ccccc2)c2ccccc2)NC(=O)[C@H](C(c2ccccc2)c2ccccc2)NC(=O)[C@H](C(c2ccccc2)c2ccccc2)NC(=O)[C@H](CCCNC(=N)N)NC1=O [IFX-002, c[Arg-Arg-Arg-Dip-Dip-Dip]] (cyclo([Dip][Dip][Dip]RRR))	25
N=C(N)NCCC[C@@H]1NC(=O)[C@H](CCCNC(=N)N)NC(=O)[C@H](CCCNC(=N)N)NC(=O)[C@H](C(c2ccccc2)c2ccccc2)NC(=O)[C@H](C(c2ccccc2)c2ccccc2)NC(=O)[C@H](C(c2ccccc2)c2ccccc2)NC(=O)[C@H](CCCNC(=N)N)NC1=O [IFX-008, c[Arg-Arg-Arg-Arg-Dip-Dip-Dip]] (cyclo(RRRR[Dip][Dip][Dip]))	12.5
N=C(N)NCCC[C@@H]1NC(=O)[C@H](CCCNC(=N)N)NC(=O)[C@H](C(c2ccccc2)c2ccccc2)NC(=O)[C@H](C(c2ccccc2)c2ccccc2)NC(=O)[C@H](CCCNC(=N)N)NC(=O)[C@H](CCCNC(=N)N)NC(=O)[C@H](C(c2ccccc2)c2ccccc2)NC1=O [IFX-017, c[Arg-Arg-Dip-Dip-Arg-Arg-Dip]] (cyclo(R[Dip]RR[Dip][Dip]R))	12.5

* * *

Tested on: Pseudomonas aeruginosa (ATCC 27883)
experimental-parameters: ATCC 27883
Non-standard residues stand in square brackets, D forms with d. Residues, ends and D or L forms follow the SMILES beside them. Bip = N[C@@H](Cc1ccc(-c2ccccc2)cc1)C(=O)O; Dip = N[C@H](C(=O)O)C(c1ccccc1)c1ccccc1; 2Nal = N[C@@H](Cc1ccc2ccccc2c1)C(=O)O
Let's look at some molecules and their measured MIC P. aeruginosa ATCC 27883.

molecule	MIC P. aeruginosa ATCC 27883
N=C(N)NCCC[C@H](NC(=O)[C@H](CCCNC(=N)N)NC(=O)[C@@H](N)CCCNC(=N)N)C(=O)N[C@@H](Cc1ccc2ccccc2c1)C(=O)N[C@@H](Cc1ccc2ccccc2c1)C(=O)N[C@@H](Cc1c[nH]c2ccccc12)C(=O)O [IFX-025-1, NH2-R-R-R-NaI-NaI-Trp-OH] (H-RRR[2Nal][2Nal]W-OH)	50 µg/mL
N=C(N)NCCC[C@H](NC(=O)[C@H](CCCNC(=N)N)NC(=O)[C@@H](N)CCCNC(=N)N)C(=O)N[C@@H](CCCNC(=N)N)C(=O)N[C@H](C(=O)N[C@H](C(=O)N[C@H](C(=O)O)C(c1ccccc1)c1ccccc1)C(c1ccccc1)c1ccccc1)C(c1ccccc1)c1ccccc1 [IFX-008-1, NH2-Arg-Arg-Arg-Arg-Dip-Dip-Dip-OH] (H-RRRR[Dip][Dip][Dip]-OH)	6.2 µg/mL
N=C(N)NCCC[C@H](NC(=O)[C@H](CCCNC(=N)N)NC(=O)[C@@H](N)CCCNC(=N)N)C(=O)N[C@@H](Cc1ccc(-c2ccccc2)cc1)C(=O)N[C@@H](Cc1ccc(-c2ccccc2)cc1)C(=O)N[C@@H](Cc1ccc(-c2ccccc2)cc1)C(=O)O [IFX-001-1, NH2-Arg-Arg-Arg-Bip-Bip-Bip-OH] (H-RRR[Bip][Bip][Bip]-OH)	>100 µg/mL
